Target: caspase-like site of 26S proteasomes (Oryctolagus cuniculus, UniProt A0A5F9DQW2)
Sequence (A0A5F9DQW2 1-212): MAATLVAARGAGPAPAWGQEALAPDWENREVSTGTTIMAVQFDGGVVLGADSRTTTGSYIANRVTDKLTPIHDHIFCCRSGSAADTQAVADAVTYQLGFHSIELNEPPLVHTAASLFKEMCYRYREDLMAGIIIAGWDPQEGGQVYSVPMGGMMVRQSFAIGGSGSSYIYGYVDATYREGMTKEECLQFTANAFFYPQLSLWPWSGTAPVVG
Assay: Inhibition of purified 26S proteasomes, substrate Ac-nLPnLD-amc
Conditions: >>30 no inhibition at 30 μM, >30 inhibition between 10 and 50% at 30 μM, read-out: IC50 for sites in 26S proteasomes: Casp-L
For each record, write down the corresponding IC50.

Examples from the recorded data:
{"compound": "CC(C)C[C@@H](/C=C/S(C)(=O)=O)NC(=O)[C@H](CC(C)C)NC(=O)[C@H](Cc1ccncc1)NC(=O)[C@H](Cc1ccccc1)N=[N+]=[N-]", "targetSystem": "caspase-like site of 26S proteasomes (Oryctolagus cuniculus, UniProt A0A5F9DQW2)", "testValue": "> 30 µM"}
{"compound": "CC(C)C[C@H](NC(=O)[C@H](Cc1ccccc1)N=[N+]=[N-])C(=O)N[C@@H](CC(C)C)C(=O)N[C@H](/C=C/S(C)(=O)=O)Cc1ccc(N)cc1 [Compound 45a, N3-Phe-Leu-Leu-Phe(4-NH2)-VS]", "targetSystem": "caspase-like site of 26S proteasomes (Oryctolagus cuniculus, UniProt A0A5F9DQW2)", "testValue": "23 µM"}
{"compound": "Cc1c(O)cccc1C(=O)N[C@H](C(=O)N[C@@H](CO)C(=O)N[C@@H](CCCNC(=N)N)C(=O)[C@@]1(C)CO1)C(C)C", "targetSystem": "caspase-like site of 26S proteasomes (Oryctolagus cuniculus, UniProt A0A5F9DQW2)", "testValue": "16 µM"}

I'm hoping you can list IC50 for every compound here, please.
1. CC(C)C[C@H](NC(=O)[C@H](Cc1ccccc1)N=[N+]=[N-])C(=O)N[C@@H](CC(C)C)C(=O)N[C@@H](Cc1ccc(N)cc1)C(=O)[C@@]1(C)CO1 [Compound 45b, N3-Phe-Leu-Leu-Phe(4-NH2)-EK]
2. CC(C)C[C@H](NC(=O)[C@H](Cc1ccccc1)N=[N+]=[N-])C(=O)N[C@@H](CC(C)C)C(=O)N[C@@H](Cc1ccc(CN)cc1)C(=O)[C@@]1(C)CO1
3. CC(C)C[C@H](NC(=O)[C@H](Cc1ccc(CN)cc1)NC(=O)[C@H](Cc1ccccc1)N=[N+]=[N-])C(=O)N[C@H](/C=C/S(C)(=O)=O)Cc1ccc(N)cc1
4. CC(C)C[C@H](NC(=O)[C@H](Cc1ccc(CN)cc1)NC(=O)[C@H](Cc1ccccc1)N=[N+]=[N-])C(=O)N[C@H](/C=C/S(C)(=O)=O)Cc1ccncc1
5. CC(C)C[C@H](NC(=O)[C@H](Cc1ccccc1)NC(=O)[C@H](Cc1ccccc1)N=[N+]=[N-])C(=O)N[C@H](/C=C/S(C)(=O)=O)Cc1ccccc1

Response line:
["> 30 µM", "11 µM", "> 30 µM", "> 30 µM", "> 30 µM"]

Prompt line: // query IC50 value for entry CC(C)C[C@H](NC(=O)[C@H](Cc1ccccc1)N=[N+]=[N-])C(=O)N[C@@H](CC(C)C)C(=O)N[C@H](/C=C/S(C)(=O)=O)CCCCN
Response line: > 30 µM
